Measured Ki on Beta-1 adrenergic receptor (Rattus norvegicus, UniProt P18090) follows.
Sequence (P18090 whole entry): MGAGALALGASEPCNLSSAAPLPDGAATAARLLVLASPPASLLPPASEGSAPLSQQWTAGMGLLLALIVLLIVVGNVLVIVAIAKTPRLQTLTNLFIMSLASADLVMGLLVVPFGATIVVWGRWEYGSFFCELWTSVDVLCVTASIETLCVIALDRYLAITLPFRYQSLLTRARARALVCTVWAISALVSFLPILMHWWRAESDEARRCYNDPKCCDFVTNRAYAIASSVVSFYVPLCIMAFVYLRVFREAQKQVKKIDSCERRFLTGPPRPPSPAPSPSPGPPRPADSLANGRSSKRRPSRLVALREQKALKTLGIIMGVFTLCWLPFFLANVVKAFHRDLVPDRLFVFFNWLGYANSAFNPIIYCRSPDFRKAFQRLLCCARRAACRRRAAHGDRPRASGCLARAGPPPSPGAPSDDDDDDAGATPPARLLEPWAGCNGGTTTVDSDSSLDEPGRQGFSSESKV
Express your answer in µM, writing the number without its unit.

Completed entries (count: 3):
C/C=N/OCC(O)CNC(C)(C)C (centres undefined)	0.76
CC/C=N/OCC(O)CNC(C)(C)C (centres undefined)	0.5
C/C=N/OCC(O)CNC(C)C (centres undefined)	1.48

Please turn your attention to the following entry.
Record lookup: for Beta-1 adrenergic receptor (Rattus norvegicus, UniProt P18090), what Ki belongs to CC(C)NCC(O)c1ccc(Cl)c(Cl)c1 (centres undefined) ?
0.051
